# EXPERIMENTAL TARGET: Neuraminidase (Influenza A virus (A/Puerto Rico/8/1934(H1N1)), UniProt P03468)
# Sequence (P03468 whole entry): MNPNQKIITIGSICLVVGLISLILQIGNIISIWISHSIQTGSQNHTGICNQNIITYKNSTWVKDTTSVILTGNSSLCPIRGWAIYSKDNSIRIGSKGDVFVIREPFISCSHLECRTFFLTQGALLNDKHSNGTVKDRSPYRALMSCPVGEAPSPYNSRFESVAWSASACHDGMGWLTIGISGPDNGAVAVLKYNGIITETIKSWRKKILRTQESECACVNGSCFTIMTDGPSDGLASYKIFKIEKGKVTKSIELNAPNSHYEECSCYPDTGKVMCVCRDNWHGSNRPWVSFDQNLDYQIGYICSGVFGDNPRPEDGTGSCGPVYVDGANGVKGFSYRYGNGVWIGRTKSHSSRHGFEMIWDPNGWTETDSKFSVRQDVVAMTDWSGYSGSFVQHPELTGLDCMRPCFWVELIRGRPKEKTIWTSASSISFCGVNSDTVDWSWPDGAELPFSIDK

>  <COMPOUND>
CC(=O)NC1C(N)C=C(C(=O)O)OC1[C@H](O)[C@H](O)CO (stereo partly specified)

>  <Ki>
40 nM

$$$$
